In this section we review reported IC50 values for a set of molecules.
target: Sigma non-opioid intracellular receptor 1 (Cavia porcellus); test: Binding affinity against sigma sites in guinea pig membrane using [3H](+)-3-PPP as the radioligand
property label: IC50 (nM)

In [3]: df
Out[3]:
                                   molecule  property_label  units_text  numeric_readout
0  OCCCN1C2CCC1c1c([nH]c3ccc(F)cc13)C2 (stereo not drawn)            IC50          nM             1380
1  CC(C)n1c2c(c3ccccc31)C1CCC(C2)N1CCCCc1ccccc1 (stereo not drawn)            IC50          nM              705
2  Fc1ccc2[nH]c3c(c2c1)C1CCC(C3)N1Cc1ccccc1 (stereo not drawn)            IC50          nM              908
